Property: self-cleavage; scope: individual variants
B1: HDV Ribozyme (parent)
chain: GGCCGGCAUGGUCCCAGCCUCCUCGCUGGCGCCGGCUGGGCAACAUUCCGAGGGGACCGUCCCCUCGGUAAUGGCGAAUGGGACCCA

# Variants of: B1
# assay info: self-cleavage, relative activity (ratio to wild type); higher = more cleavage; co-transcriptional
Reply: number alone, nothing else.

Known self-cleavage results, listed for orientation:
GGCCGGCAUGGUCCCAGCCUCCUCUCUGGCCCCGGCUGGGCAACAUUCCGAGGGGACCGUCCCCUCGGUAAUGGCGAAUGGGACCCA [G25U G31C]: 0.101
GUCCGGCAUGGUCCCAGCCUCCUCGCUGGCGCCGGCUGGGCAACAUUCCGAGGGGACCGUUCCCUCGGUAAUGGCGAAUGGGACCCA [G2U C61U]: 0.103
GGCCGGCAUGGUCCCAGCCUCCUCGCUGGCGCCGGGUGGGCAACAUUCCGAAGGGACCGUCCCCUCGGUAAUGGCGAAUGGGACCCA [C36G G52A]: 0.271
GGCCGGCAUGGUCACAGCCUCCUCGCUGGCGCCGGCUGGGCAACAUUCCGAGGGGACCGUCCCCUCGGUAAUGUCGAAUGGGACCCA [C14A G74U]: 0.281
GGCCGGCAUGGUCCCAGCCUCCUCGCAGGCGCCGGCUGGGCAACAUUCCGAGGGGACCGACCCCUCGGUAAUGGCGAAUGGGACCCA [U27A U60A]: 0.918
GGCCGGCAUGGUCCCAGCCUCCUCGCUGGCGCCGGCUGGGCAACAUUCCGAGGGGACCGUCCCCUCGGCAAUGGCGAUUGGGACCCA [U69C A78U]: 0.375

Next up:
Could you please provide reported self-cleavage for GGCCGGCAUGGUCCCAGCCUACUCGCUGGCGCCGGCUGGGCAACAUUCCGAGGGGUCCGUCCCCUCGGUAAUGGCGAAUGGGACCCA [C21A A56U] ? Thanks! 0.108
